Assay: qHTS of pediatric cancer cell lines to identify multiple opportunities for drug repurposing: Primary screen for RD cells (AID 1347104); note: nearly all actives have a fitted effect of over 55% in size
Details: RD rhabdomyosarcoma viability, CellTiter-Glo luminescence, 48 h; series mostly up to 46 µM
Inconclusive results are not listed. The source made the active and inactive calls. Calls come from the whole dose curve; as a rule, active = well fitted cell-killing curve with a large enough effect; inconclusive = small, poorly fitted or top-dose-only effect; inactive = flat fitted curve, though single readings scatter.
Parameter call: string, one of Yes for active, No for inactive

These recorded examples may help you get a feel for the data.
>  <COMPOUND>
O=C1NC(=O)[C@@]2(CCOc3ccc(F)cc32)N1

>  <LABEL>
No

$$$$
>  <COMPOUND>
C#CCN(C)Cc1ccccc1

>  <LABEL>
No

$$$$
>  <COMPOUND>
c1ccc2c(CC3=NCCN3)cccc2c1

>  <LABEL>
No

$$$$
>  <COMPOUND>
CC(C)c1c(C(=O)Nc2ccccc2)c(-c2ccccc2)c(-c2ccc(F)cc2)n1CC[C@@H](O)C[C@@H](O)CC(=O)O

>  <LABEL>
No

$$$$
>  <COMPOUND>
OCC(O)CN1CCN(c2ccccc2)CC1 (stereo unspecified)

>  <LABEL>
No

$$$$
>  <COMPOUND>
Cc1cccc(Nc2cc(Cl)nc(SCC(=O)O)n2)c1C

>  <LABEL>
No

$$$$

# input for lookup
**Query** Given CCN(CC)CCNC(C(=O)OCCC(C)C)c1ccccc1 (stereo unspecified) , state the outcome it received in this test.
**Result** No
